- assay system: human GRP receptor (human, UniProt P30550 1-384)
- Sequence (P30550 whole entry): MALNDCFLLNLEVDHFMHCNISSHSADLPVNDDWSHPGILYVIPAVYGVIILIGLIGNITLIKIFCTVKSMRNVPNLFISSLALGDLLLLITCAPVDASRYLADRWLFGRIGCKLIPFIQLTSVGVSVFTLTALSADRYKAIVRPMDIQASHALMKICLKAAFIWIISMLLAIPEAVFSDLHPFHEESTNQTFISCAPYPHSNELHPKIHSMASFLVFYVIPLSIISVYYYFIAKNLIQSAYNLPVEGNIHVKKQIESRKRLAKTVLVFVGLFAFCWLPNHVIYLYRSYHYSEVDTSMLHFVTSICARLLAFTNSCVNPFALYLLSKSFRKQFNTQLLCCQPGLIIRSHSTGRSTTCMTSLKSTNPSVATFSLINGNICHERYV
- protocol notes: cell-based or functional assay
Starred links: 1 amine or outer side, 2 acyl side, 3 side chain; linkers in the order of their positions; H or OH if unused. Non-standard residues stand in square brackets, D forms with d. No end group written: not given here. *: point of attachment. Trp(7-F) = N[C@@H](Cc1c[nH]c2c(F)cccc12)C(=O)O; C20 diacid = O=C(O)CCCCCCCCCCCCCCCCCCC(=O)*; C18 diacid = O=C(O)CCCCCCCCCCCCCCCCC(=O)*; γGlu = O=C(O)[C@H](CCC(=O)[*:2])N[*:1]; Nle = CCCC[C@H](N)C(=O)O; AEEA = NCCOCCOCC(=O)O
hIP1 GRPR EC50 reference
Answer with a number only, understood to be in nM.

{C20 diacid}-[γGlu]GQHWAV[dA]HL[Nle]-NH2 (SMILES CCCC[C@H](NC(=O)[C@H](CC(C)C)NC(=O)[C@H](Cc1c[nH]cn1)NC(=O)[C@@H](C)NC(=O)[C@@H](NC(=O)[C@H](C)NC(=O)[C@H](Cc1c[nH]c2ccccc12)NC(=O)[C@H](Cc1c[nH]cn1)NC(=O)[C@H](CCC(N)=O)NC(=O)CNC(=O)CC[C@H](NC(=O)CCCCCCCCCCCCCCCCCCC(=O)O)C(=O)O)C(C)C)C(N)=O) [Peptide 165] = 1.55
{C20 diacid}-[γGlu]RNHWAV[dA]HL[Nle] [Peptide 155] = 132

Next:
Exercise: Recall and state the measured hIP1 GRPR EC50 for {C18 diacid}-[γGlu][AEEA][AEEA][AEEA][AEEA]GNH[Trp(7-F)]AV[dA]HL[Nle]-NH2 (SMILES CCCC[C@H](NC(=O)[C@H](CC(C)C)NC(=O)[C@H](Cc1c[nH]cn1)NC(=O)[C@@H](C)NC(=O)[C@@H](NC(=O)[C@H](C)NC(=O)[C@H](Cc1c[nH]c2c(F)cccc12)NC(=O)[C@H](Cc1c[nH]cn1)NC(=O)[C@H](CC(N)=O)NC(=O)CNC(=O)COCCOCCNC(=O)COCCOCCNC(=O)COCCOCCNC(=O)COCCOCCNC(=O)CC[C@H](NC(=O)CCCCCCCCCCCCCCCCC(=O)O)C(=O)O)C(C)C)C(N)=O) [Peptide 110] .
Key: 12.4
